# system tested: hERG K+ channel (Homo sapiens)
# Construct: a Chinese Hamster Lung cell line stably expressing the full length hERG channel; expressed in transfected cells; host or cells: Chinese Hamster Lung cell line
# Sequence (Q12809 whole entry): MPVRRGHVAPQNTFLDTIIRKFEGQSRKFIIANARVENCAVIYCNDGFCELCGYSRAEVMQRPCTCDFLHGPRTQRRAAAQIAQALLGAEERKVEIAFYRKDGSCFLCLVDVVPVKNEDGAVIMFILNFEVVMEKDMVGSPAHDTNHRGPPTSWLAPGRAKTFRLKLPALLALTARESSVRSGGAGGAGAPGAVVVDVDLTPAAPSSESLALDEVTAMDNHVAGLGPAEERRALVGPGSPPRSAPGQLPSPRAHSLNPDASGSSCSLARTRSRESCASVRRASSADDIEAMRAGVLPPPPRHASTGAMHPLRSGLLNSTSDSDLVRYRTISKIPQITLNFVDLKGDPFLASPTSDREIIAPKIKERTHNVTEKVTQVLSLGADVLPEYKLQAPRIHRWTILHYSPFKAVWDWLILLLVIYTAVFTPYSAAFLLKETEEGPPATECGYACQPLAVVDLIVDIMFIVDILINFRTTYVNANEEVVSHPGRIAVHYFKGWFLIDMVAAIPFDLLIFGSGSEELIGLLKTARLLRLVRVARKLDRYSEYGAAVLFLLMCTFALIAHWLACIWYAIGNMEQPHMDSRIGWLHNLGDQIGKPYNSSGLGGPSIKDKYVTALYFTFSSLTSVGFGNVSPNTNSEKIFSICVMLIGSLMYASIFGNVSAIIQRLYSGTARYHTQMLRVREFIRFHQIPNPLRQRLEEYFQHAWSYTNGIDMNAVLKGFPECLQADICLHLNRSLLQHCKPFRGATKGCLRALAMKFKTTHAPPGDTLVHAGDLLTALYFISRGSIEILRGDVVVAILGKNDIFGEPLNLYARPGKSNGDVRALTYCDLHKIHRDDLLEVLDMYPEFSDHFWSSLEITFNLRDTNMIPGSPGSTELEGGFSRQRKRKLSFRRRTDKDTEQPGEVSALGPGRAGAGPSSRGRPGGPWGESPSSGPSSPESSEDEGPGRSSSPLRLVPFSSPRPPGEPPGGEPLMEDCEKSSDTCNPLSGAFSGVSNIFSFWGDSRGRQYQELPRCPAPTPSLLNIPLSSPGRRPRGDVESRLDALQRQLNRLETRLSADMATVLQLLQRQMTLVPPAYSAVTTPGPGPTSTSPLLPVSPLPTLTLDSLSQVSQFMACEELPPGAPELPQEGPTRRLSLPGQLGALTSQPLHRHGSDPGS
# experimental protocol: hERG assay, IonWorks patch clamp electrophysiology
# Assay type: cell-based
# reported conditions: human, pH 7.3; 11 uM; Chinese Hamster Lung cell line stably expressing hERG
Label scheme for inhibition at 11 µM: lower than 9% is false, 9% and above is true.

CC(=O)c1ccc2c(c1)[C@H](NC(=O)c1ccc(F)c(Cl)c1)[C@H](OC(=O)[C@@H](N)CCCCN)C(C)(C)O2.Cl.Cl [Example 9, dihydrochloride]; false
CC(=O)c1ccc2c(c1)[C@H](NC(=O)c1ccc(F)c(Cl)c1)[C@H](OC(=O)[C@@H](N)CCC(=O)O)C(C)(C)O2; false
CC(=O)c1ccc2c(c1)[C@H](NC(=O)c1ccc(F)c(Cl)c1)[C@H](OC(=O)[C@@H](N)C(C)C)C(C)(C)O2.Cl [Example 2, hydrochloride]; true
CC(=O)c1ccc2c(c1)[C@H](NC(=O)c1ccc(F)c(Cl)c1)[C@H](OC(=O)[C@@H](N)CC(N)=O)C(C)(C)O2.Cl [Example 10, hydrochloride]; true

Lookup: Evaluate "CC(=O)c1ccc2c(c1)[C@H](NC(=O)c1ccc(F)c(Cl)c1)[C@H](OC(=O)[C@@H](N)CC(=O)O)C(C)(C)O2" : inhibition at 11 µM at minimum 9%?
Found: true

---

solubility: recorded values
# experimental protocol: Solubility in aqueous solution
# Assay type: physicochemical
# reported conditions: pH 4.4, aqueous buffer
# Experimental: In an embodiment prodrugs of the present invention are suitable for oral administration. The skilled person understands that the pH of the gastrointestinal tract changes along its length. For example, the stomach has a pH of around pH 1.5 and the GI tract after the stomach has a pH of around 5 to 7.5. […] Compounds of the invention were assessed for solubility in aqueous solutions having a pH of from 2 to 10. […]

Below are worked cases with known answers.
CC(=O)c1ccc2c(c1)[C@H](NC(=O)c1ccc(F)c(Cl)c1)[C@H](OC(=O)[C@@H]1CCCN1)C(C)(C)O2.Cl; > 10 mg/mL
CC(=O)c1ccc2c(c1)[C@H](NC(=O)c1ccc(F)c(Cl)c1)[C@H](OC(=O)[C@@H](N)CCCCN)C(C)(C)O2.Cl.Cl; > 10 mg/mL
CC(=O)c1ccc2c(c1)[C@H](NC(=O)c1ccc(F)c(Cl)c1)[C@H](OC(=O)[C@@H](N)CCCNC(=N)N)C(C)(C)O2.Cl.Cl; > 10 mg/mL
CC(=O)c1ccc2c(c1)[C@H](NC(=O)c1ccc(F)c(Cl)c1)[C@H](OC(=O)[C@@H](N)C(C)C)C(C)(C)O2.Cl; ~5 mg/mL

Let us move to another entry and its solubility.
Lookup: // lookup solubility for "CC(=O)c1ccc2c(c1)[C@H](NC(=O)c1ccc(F)c(Cl)c1)[C@H](OC(=O)[C@@H](N)CC(N)=O)C(C)(C)O2.Cl"
Found: < 1 mg/mL

---

# experimental protocol: Solubility in aqueous solution
# Type: physicochemical
# reported conditions: pH 6.5, aqueous buffer
outcome measure: solubility

Lookup: // lookup solubility for CC(=O)c1ccc2c(c1)[C@H](NC(=O)c1ccc(F)c(Cl)c1)[C@H](OC(=O)[C@@H](N)CC(=O)O)C(C)(C)O2 [Example 13]
Found: > 2000 µg/mL
